study target: ALPK1 (Homo sapiens (Human))
Sequence (Q96QP1 whole entry): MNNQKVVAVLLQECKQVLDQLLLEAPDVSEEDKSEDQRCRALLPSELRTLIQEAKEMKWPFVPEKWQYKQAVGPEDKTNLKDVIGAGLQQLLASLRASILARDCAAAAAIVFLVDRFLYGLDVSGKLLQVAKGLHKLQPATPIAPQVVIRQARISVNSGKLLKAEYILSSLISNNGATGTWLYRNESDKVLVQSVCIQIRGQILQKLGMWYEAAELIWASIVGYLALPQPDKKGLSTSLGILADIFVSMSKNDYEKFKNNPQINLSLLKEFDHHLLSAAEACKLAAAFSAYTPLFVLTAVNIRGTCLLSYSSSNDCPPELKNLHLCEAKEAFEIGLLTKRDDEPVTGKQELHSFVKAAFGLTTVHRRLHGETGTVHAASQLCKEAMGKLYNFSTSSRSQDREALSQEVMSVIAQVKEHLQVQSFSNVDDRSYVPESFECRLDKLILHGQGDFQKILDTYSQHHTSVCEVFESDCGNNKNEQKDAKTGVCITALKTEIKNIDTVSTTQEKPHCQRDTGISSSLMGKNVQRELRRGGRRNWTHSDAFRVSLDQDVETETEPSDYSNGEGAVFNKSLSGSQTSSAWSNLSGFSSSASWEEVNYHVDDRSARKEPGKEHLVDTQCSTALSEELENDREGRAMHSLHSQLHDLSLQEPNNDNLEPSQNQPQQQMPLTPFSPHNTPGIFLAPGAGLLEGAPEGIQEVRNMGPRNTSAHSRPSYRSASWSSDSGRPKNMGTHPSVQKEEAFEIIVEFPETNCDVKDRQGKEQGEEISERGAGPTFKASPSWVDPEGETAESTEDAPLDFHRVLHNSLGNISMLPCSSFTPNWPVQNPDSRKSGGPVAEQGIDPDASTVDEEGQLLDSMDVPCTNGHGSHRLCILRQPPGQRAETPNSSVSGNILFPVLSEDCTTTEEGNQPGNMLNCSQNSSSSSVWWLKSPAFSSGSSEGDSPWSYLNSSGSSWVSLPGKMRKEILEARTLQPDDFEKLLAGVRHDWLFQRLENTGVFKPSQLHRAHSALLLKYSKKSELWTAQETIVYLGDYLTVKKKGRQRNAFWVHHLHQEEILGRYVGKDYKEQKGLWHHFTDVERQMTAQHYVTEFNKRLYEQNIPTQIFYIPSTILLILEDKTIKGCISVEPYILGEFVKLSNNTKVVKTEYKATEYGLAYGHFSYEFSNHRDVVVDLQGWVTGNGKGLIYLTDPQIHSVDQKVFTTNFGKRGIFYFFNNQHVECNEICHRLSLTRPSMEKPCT
assay protocol: ALPK1 in vitro kinase assay (HTRF of TIFA phosphorylation)
Format: biochemical
result type: IC50 (nM)

* CC(NC(=O)Nc1nc(C(C)(C)c2ccc(Br)cc2)cs1)c1ccc(N2CCNCC2)cc1 (stereo not drawn) | 85
* COc1ccc(C(C)(C)c2csc(NC(=O)NCCCCN3CCC(N)C3)n2)cc1 (stereo not drawn) | 180
* COc1ccc(C(C)(C)c2csc(NC(=O)NCc3ccc(C(=O)NC4CCN(C)CC4)cc3)n2)cc1 | 29
* CC(C)(c1ccc(Br)cc1)c1csc(NC(=O)NCc2cnc(NCCN3CCNCC3)nc2)n1 | 68
* CC(C)(c1ccc(Br)cc1)c1csc(NC(=O)NCc2ccc(N3CCNCC3)cc2)n1 | 46
* CC(C)(c1ccc(Br)cc1)c1csc(NC(=O)NCc2ccc(F)c(Cl)c2)n1 | 204
* CC(C)(c1ccc(F)cc1)c1csc(NC(=O)NCc2cnc(N3CCNCC3)nc2)n1 | 85
* COc1ccc(C(C)(C)c2csc(NC(=O)NCc3ccc(N4CCNCC4)c(C(N)=O)c3)n2)cc1 | 8
* NC1CCN(c2ccc(CNC(=O)Nc3nc(C4(c5ccc(Br)cc5)CCCC4)cs3)cc2)CC1 | 80
* CC(C)(c1ccc(Br)cc1)c1csc(NC(=O)NCc2ccc(N3CCNCC3)cc2Cl)n1 | 138
* COc1ccc(C(C)(C)c2csc(NC(=O)NCCCC(N)=O)n2)cc1 | 260
* CC(C)(c1ccc(Br)cc1)c1csc(NC(=O)NCc2ccc(N3CCNCC3)c(Cl)c2)n1 | 46
* COc1ccc(C(C)(C)c2csc(NC(=O)NCCCCN)c2)cc1 | 59
* COc1ccc(C(C)(C)c2csc(NC(=O)NCC(=O)CO)n2)cc1 | 61
* COc1ccc(C(C)(C)c2csc(NC(=O)NCc3cc(F)c(N4CC5CC(C4)N5)c(F)c3)n2)cc1 | 88
* C#C[C@](C)(c1ccc(Cl)cc1)c1csc(NC(=O)N2CC(CO)C2)n1 | 1550
* COc1ccc(C(C)(C)c2csc(NC(=O)NCc3cnc(N4CCC(N)C4)nc3)n2)cc1 (stereo not drawn) | 7
* CC(C)(c1ccc(Br)cc1)c1csc(NC(=O)NCc2cccc(N3CCNCC3)n2)n1 | 163
* COc1ccc(C(C)(C)c2csc(NC(=O)NCc3ccc(C(=O)NC4CCNCC4)cc3)n2)cc1 | 15
* COc1ccc(C(C)(C)c2csc(NC(=O)NCCCCO)n2)cc1 | 146
* CC(C)(c1ccc(Br)cc1)c1csc(NC(=O)NCCCN2CCOCC2)n1 | 113
* CCC(C)(c1ccc(OC)cc1)c1csc(NC(=O)NC(C)c2ccc(N3CCNCC3)cc2)n1 (stereo not drawn) | 147
* COc1ccc(C(C)(C)c2csc(NC(=O)NCc3cnc(NCCO)c(F)c3)n2)cc1 | 144
* COc1ccc(C(C)(C)c2csc(NC(=O)NCc3ccc(C(=O)NCCN)cc3)n2)cc1 | 29
* C#CC(C)(c1ccc(Br)cc1)c1csc(NC(N)=O)n1 (stereo in doubt) [Example A164] | 17
* C#C[C@@](C)(c1ccc(OC)cc1)c1csc(NC(=O)NCCS(N)(=O)=O)n1 | 95
* C#CC(C)(c1ccc(Cl)cc1)c1csc(NC(=O)NCC(C)(C)O)n1 (stereo not drawn) | 218
* COc1ccc(C(C)(C)c2csc(NC(=O)NCc3ccc(N4CCNCC4)c(OC(C)C)c3)n2)cc1 | 108
* [2H]c1sc(NC(=O)NCCO)nc1[C@@](C)(C#C)c1ccc(Cl)cc1 | 58
* COc1ccc(C(C)(C)c2csc(NC(=O)NCc3cccc(N4CCNCC4)n3)n2)cc1 | 165
* CC(C)(c1ccc(Br)cc1)c1csc(NC(=O)NCCN)n1 | 95
* COc1ccc(C(C)(C)c2csc(NC(=O)NCc3ccc(N4CCC(N(C)C)C4)nc3)n2)cc1 (stereo not drawn) | 49
* CC(C)(c1ccc(Cl)c(F)c1)c1csc(NC(=O)NCc2cnc(N3CCNCC3)nc2)n1 | 95
